Target: T1, human TIGIT protein (human, UniProt Q495A1 22-141, limits assumed)
T1 construct: Recombinant protein (Genentech) used in ELISA screening and as SPR analyte; also called TIGIT antigen
T1 sequence: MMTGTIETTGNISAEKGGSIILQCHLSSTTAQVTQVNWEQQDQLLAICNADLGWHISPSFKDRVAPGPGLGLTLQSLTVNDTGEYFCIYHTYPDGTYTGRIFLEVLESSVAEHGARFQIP
Experiment: SPR, bivalent affinity
Listing: Kd of selected binders

[[record]]
binder = "rat10A5 (antibody, V domains shown, SD rat-derived; rat V domains as FR/HVR pieces; also called 1.10A5; Chimeric 1.10A5) VH: QVSLKESGPGILQPSHTLSLTCSFSGFSLTTYGMGVSWIRQPSEKGLEWLASIWWNGNTYYNPSLRSRLTVSKDTSNDQAFLNVTSVDTTDTATYYCAHTGGAVITWFAYWGQGTLVTVSS VL: NIVMTQSPKSMSISIGDRVTMNCKASQSVGKNIAWYQQKTGQSPQLLIYYASNRYTGVPDRFTGGGSGTDFTLTINSVQAEDAAFFYCQHIYNSPYPFGTGTKLEIK"
value_kind = "Kd"
result = "≤ 3 pM"


Now look at this one.
query: So what's the measured Kd for this one? rat7E7 (antibody, V domains shown, SD rat-derived; rat V domains as FR/HVR pieces; also called 1.7E7; Chimeric 1.7E7) VH: EVQLQQSGPELQRPGASVKLSCKATGYTFTEYSIYWVKQRPKQSLEIIGRIDPKNGRTYYVDKFKNRATLTADTSSNTAYMQLSSLTSEDTATYFCTRIYGFYFDFWGQGVMVTASS VL: NIHLTQSPSLLSASVGDRVTLSCKGSQNVNKYLVWYQQKLGEAPKLLIYNTDNLQSGIPSRFSGSGSGTDYTLTISSLQPEDAATYFCYQYNNGFTFGSGTKLEIK
result: ≤ 4 pM
